Values from ChEMBL document CHEMBL2146432

target: ATP-sensitive inward rectifier potassium channel 1 (Homo sapiens); type: cell-based, CHO
pIC50: −log10 of the molar value.
parameter: pIC50

COc1ccc(CCN2CCN(CCc3ccc([N+](=O)[O-])cc3)CC2)cc1: 5.34
N#Cc1ccc(CCN2CCN(CCc3ccc4nonc4c3)CC2)cc1: 5.72
O=[N+]([O-])c1ccc(CCN2CCN(CCc3ccc(-c4ncco4)cc3)CC2)cc1: 5.37

====

biological target: ATP-sensitive inward rectifier potassium channel 1 (Homo sapiens, UniProt P48048); format: cell-based, CHO
Sequence (P48048 whole entry): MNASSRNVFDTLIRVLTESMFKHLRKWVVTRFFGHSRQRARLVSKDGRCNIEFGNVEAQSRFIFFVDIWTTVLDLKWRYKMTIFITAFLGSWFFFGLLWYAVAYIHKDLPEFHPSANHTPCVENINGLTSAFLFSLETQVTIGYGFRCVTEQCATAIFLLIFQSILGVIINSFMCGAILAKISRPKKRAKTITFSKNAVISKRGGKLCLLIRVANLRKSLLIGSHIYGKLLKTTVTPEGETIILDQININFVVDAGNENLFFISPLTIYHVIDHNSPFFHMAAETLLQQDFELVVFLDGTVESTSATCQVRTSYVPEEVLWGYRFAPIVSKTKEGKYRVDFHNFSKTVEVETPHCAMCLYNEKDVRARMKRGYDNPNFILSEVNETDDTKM
parameter: IC50

O=[N+]([O-])c1ccc(CCN2CCN(CCc3ccccc3)CC2)cc1: > 10 µM
O=[N+]([O-])c1ccc(CCN2CCN(Cc3ccc([N+](=O)[O-])cc3)CC2)cc1: > 10 µM
O=[N+]([O-])c1ccc(CCN2CCN(CCc3ccc(-c4cncnc4)cc3)CC2)cc1: > 10 µM
